Origin of the recorded values: ChEMBL document CHEMBL2331222

Target: Signal transducer and activator of transcription 3 (Homo sapiens, UniProt P40763)
Sequence (P40763 whole entry): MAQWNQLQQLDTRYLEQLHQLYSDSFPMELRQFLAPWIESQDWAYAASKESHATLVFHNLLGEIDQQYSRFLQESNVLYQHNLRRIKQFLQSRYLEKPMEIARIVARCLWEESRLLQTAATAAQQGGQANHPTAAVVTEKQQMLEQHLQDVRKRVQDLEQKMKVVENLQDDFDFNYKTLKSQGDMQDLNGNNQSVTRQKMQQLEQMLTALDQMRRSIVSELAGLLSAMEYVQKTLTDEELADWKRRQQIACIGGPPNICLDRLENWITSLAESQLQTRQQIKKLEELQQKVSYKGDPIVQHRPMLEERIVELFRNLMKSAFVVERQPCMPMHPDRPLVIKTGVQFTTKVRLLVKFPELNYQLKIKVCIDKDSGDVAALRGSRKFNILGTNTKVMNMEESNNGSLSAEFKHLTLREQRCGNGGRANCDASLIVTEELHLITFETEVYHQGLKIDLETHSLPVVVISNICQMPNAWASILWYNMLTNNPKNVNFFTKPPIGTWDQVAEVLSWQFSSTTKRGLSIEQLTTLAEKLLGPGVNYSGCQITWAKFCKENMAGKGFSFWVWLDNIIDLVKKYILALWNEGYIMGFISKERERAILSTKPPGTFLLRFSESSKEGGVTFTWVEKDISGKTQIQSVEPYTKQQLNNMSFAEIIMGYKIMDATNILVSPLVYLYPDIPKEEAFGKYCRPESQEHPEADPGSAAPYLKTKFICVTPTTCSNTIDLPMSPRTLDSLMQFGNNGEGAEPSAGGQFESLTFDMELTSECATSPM
Experiment: Inhibition of STAT3 in IL-6-stimulated human HepG2 cells at 10 uM treated for 1 hr prior to IL-6 challenge measured after 5.5 hrs by luciferase reporter gene assay
Assay type: cell-based
Listed next: entries and their corresponding inhibition.
Readout Name: inhibition

Compound | System | Meas Value
CCc1cccc(CC)c1NC(=O)CSc1nc2ccc(NC(=O)C(C)C)cc2s1 | Signal transducer and activator of transcription 3 (Homo sapiens, UniProt P40763) | -8.31%
CCc1cccc(CC)c1NC(=O)CSc1nc2ccc(NC(=O)c3ccncc3)cc2s1 | Signal transducer and activator of transcription 3 (Homo sapiens, UniProt P40763) | 39.1%
CCCC(C)Oc1ccc(C(=O)Nc2ccc3nc(SCC(=O)Nc4c(CC)cccc4CC)sc3c2)cc1 (stereo not drawn) | Signal transducer and activator of transcription 3 (Homo sapiens, UniProt P40763) | 25.8%
